Just for reference, patent US12344610B2 is where these values come from.

# Test system: HEK293 clonal cell line overexpressing APOL1 G1
# assay.details: APOL1 G1 HEK293 cell rescue assay (Example B3)
# Format: cell-based
# measurement.setup: Homo sapiens, HEK293, HEK293 clonal line overexpressing APOL1 G1; geometric mean of at least 2 runs; † = single run; ¥ = concentration at 50% rescue estimated (no sigmoidal curve)
Below is a list of entries, each paired with its recorded pEC50 value.
pEC50 (log units): -log10 of the concentration in mol/L.

CS(=O)(=O)C1(c2ncc(OCCN3CCC4(CC3)C(=O)Nc3ccc(OC(F)F)cc34)cn2)CC1
6.60

The compound CC(COc1ccc(C2(S(C)(=O)=O)COC2)cc1)N1CCC2(CC1)C(=O)Nc1ccc(C#N)cc12 (stereo not drawn) on HEK293 clonal cell line overexpressing APOL1 G1: pEC50 was 5.75

The compound CC1(O)CC(CN2C(=O)CCc3cc(OCCN4CCC5(CC4)C(=O)Nc4ccc(Cl)cc45)cnc32)C1 (stereo not drawn) on HEK293 clonal cell line overexpressing APOL1 G1: pEC50 was 7.07

The compound O=C1Nc2ccc(Cl)cc2C12CCN(CCOc1cnc3c(N4CC(O)C4)nccc3c1)CC2 on HEK293 clonal cell line overexpressing APOL1 G1: pEC50 was 7.27

The compound O=C1Nc2ccc(Cl)cc2C12CCN(CCOc1cnc(N3CC(O)C3)nc1)CC2 on HEK293 clonal cell line overexpressing APOL1 G1: pEC50 was 6.72

The compound CC1(O)CC(c2ncc(OCCN3CCC4(CC3)C(=O)Nc3ccc(Cl)cc34)cn2)C1 (stereo not drawn) [Compound 373] on HEK293 clonal cell line overexpressing APOL1 G1: pEC50 was 6.88

The compound CC(C)N1C(=O)Cc2cc(OCCN3CCC4(CC3)C(=O)Nc3ccc(Cl)cc34)ccc21 on HEK293 clonal cell line overexpressing APOL1 G1: pEC50 was 7.01

The compound C[C@]1(O)C[C@@H](N2C(=O)CCc3cc(OCCN4CCC5(CC4)C(=O)Nc4c(I)cc(Cl)cc45)cnc32)C1 on HEK293 clonal cell line overexpressing APOL1 G1: pEC50 was 7.02

The compound N#Cc1ccc2c(c1)C1(CCN(CCOc3ccc(C(N)=O)c(F)c3)CC1)C(=O)N2 on HEK293 clonal cell line overexpressing APOL1 G1: pEC50 was 6.61

The compound CC(c1c(F)cc(OCCN2CCC3(CC2)C(=O)Nc2ccc(Cl)cc23)cc1F)S(C)(=O)=O (single isomer, unassigned) [Compound 142] on HEK293 clonal cell line overexpressing APOL1 G1: pEC50 was 6.72

The compound CS(=O)(=O)c1ccc(OCCN2CCC3(CC2)C(=O)Nc2ccc(Cl)cc23)cc1 on HEK293 clonal cell line overexpressing APOL1 G1: pEC50 was 6.51

The compound CC(=O)N1CCCc2cc(OCCN3CCC4(CC3)C(=O)Nc3ccc(C#N)cc34)ccc21 on HEK293 clonal cell line overexpressing APOL1 G1: pEC50 was 6.37

The compound C[C@]1(O)C[C@@H](N2C(=O)Cc3cc(OCCN4CCC5(CC4)C(=O)Nc4ccc(C(F)F)cc45)cnc32)C1 on HEK293 clonal cell line overexpressing APOL1 G1: pEC50 was 7.08

The compound CS(=O)(=O)N1Cc2ccc(OCCN3CCC4(CC3)C(=O)Nc3ccc(Cl)cc34)cc2C1 on HEK293 clonal cell line overexpressing APOL1 G1: pEC50 was 6.41
